B1: MBP–Nab2p NLS [S. cerevisiae] / Kap104p [yeast (S. cerevisiae)] (parent complex)
chain 1: DNSQRFTQRGGGAVGKNRRGGRGGNRGGRNNNSTRFNPLAKALGMAGESNM
chain 2: MASTWKPAEDYVLQLATLLQNCMSPNPEIRNNAMEAMENFQLQPEFLNYLCYILIEGESDDVLKQHYSLQDLQNNRATAGMLLKNSMLGGNNLIKSNSHDLGYVKSNIIHGLYNSNNNLVSNVTGIVITTLFSTYYRQHRDDPTGLQMLYQLLELTSNGNEPSIKALSKIMEDSAQFFQLEWSGNTKPMEALLDSFFRFISNPNFSPVIRSESVKCINTVIPLQTQSFIVRLDKFLEIIFQLAQNDENDLVRAQICISFSFLLEFRPDKLVSHLDGIVQFMLHLITTVNEEKVAIEACEFLHAFATSPNIPEHILQPYVKDIVPILLSKMVYNEESIVLLEASNDDDAFLEDKDEDIKPIAPRIVKKKEAGNGEDADDNEDDDDDDDDEDGDVDTQWNLRKCSAATLDVMTNILPHQVMDIAFPFLREHLGSDRWFIREATILALGAMAEGGMKYFNDGLPALIPFLVEQLNDKWAPVRKMTCWTLSRFSPWILQDHTEFLIPVLEPIINTLMDKKKDVQEAAISSVAVFIENADSELVETLFYSQLLTSFDKCLKYYKKKNLIILYDAIGRFAEKCALDETAMQIILPPLIEKWALLSDSDKELWPLLECLSCVASSLGERFMPMAPEVYNRAFRILCHCVELEAKSHQDPTIVVPEKDFIITSLDLIDGLVQGLGAHSQDLLFPQGTKDLTILKIMLECLQDPVHEVRQSCFALLGDIVYFFNSELVIGNLEDFLKLIGTEIMHNDDSDGTPAVINAIWALGLISERIDLNTYIIDMSRIILDLFTTNTQIVDSSVMENLSVTIGKMGLTHPEVFSSGAFANDSNWNKWCLSVNALDDVEEKSSAYMGFLKIINLTSTEVTMSNDTIHKIVTGLSSNVEANVFAQEIYTFLMNHSAQISAINFTPDEISFLQQFTS

variants of: B1; assay: ITC; parent: 37 nM
# Kd per entry
measured.endpoint: Kd (nM)

sequence.content: chain 1 DNSQRFTQRGGGAVGKNRRGGRGGNRGGRNNNSTRLNPLAKALGMAGESNM [chain 1 F36L]
unit.tag: nM
number: 66

sequence.content: chain 1 DNSQRFTQRGGGAVGKNRRGGRGGNRGGRNNNSTHFNPLAKALGMAGESNM [chain 1 R35H]
unit.tag: nM
number: 63

sequence.content: chain 1 DNSQRFTQRGGGAVGKNRRGGRGGNRGGRNNNSTRANPLAKALGMAGESNM [chain 1 F36A]
unit.tag: nM
number: 296

sequence.content: chain 1 DNSQRFTQRGGGAVGKNKKGGKGGNKGGKNNNSTRFNPLAKALGMAGESNM [chain 1 R18K, chain 1 R19K, chain 1 R22K, chain 1 R26K, chain 1 R29K]
unit.tag: nM
number: 21
